Origin of measurements: patent US8841312B2

Biological target: Cdk4/CyclinD1 (Homo sapiens (Human), UniProt P11802)
Sequence (P11802 whole entry): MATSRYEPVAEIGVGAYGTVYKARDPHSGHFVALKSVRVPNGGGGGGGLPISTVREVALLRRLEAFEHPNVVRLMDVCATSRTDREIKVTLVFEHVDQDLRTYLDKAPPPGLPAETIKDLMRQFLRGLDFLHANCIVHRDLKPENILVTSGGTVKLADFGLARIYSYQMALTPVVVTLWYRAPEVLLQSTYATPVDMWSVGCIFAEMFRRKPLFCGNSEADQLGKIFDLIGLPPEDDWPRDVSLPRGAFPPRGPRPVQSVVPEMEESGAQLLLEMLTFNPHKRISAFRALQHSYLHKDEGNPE
Sequence (P24385 whole entry partner): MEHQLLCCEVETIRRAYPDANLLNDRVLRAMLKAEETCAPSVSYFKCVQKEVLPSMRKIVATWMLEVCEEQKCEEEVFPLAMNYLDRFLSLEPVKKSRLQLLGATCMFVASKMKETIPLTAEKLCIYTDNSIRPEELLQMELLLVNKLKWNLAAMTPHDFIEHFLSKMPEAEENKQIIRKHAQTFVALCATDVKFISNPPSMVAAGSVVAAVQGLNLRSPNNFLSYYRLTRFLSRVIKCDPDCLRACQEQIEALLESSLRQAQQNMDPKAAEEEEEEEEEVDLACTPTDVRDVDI
Experiment: Cdk4 kinase inhibition assay with recombinant Cdk4/CyclinD1, Rb substrate, [33P]-ATP filter plate
Conditions: 25 μM ATP, read-out: Cdk 4 IC50
MEASURED ATTRIBUTE: IC50 (nM)

* CN(C)C1CCN(c2ccc(Nc3ncc4c5ccccc5n(C5CCCC5)c4n3)nc2)CC1 [Example 309] | 11
* c1cc2c3cnc(Nc4ccc(N5CCNCC5)cn4)nc3n(C3CCOCC3)c2cn1 [Example 20] | 8.1
* O=S1(=O)CCC(Nc2ccc(Nc3ncc4c5ccncc5n(C5CCCC5)c4n3)nc2)C1 (stereo not drawn) [Example 65] | 9.6
* C[C@H](CO)NC1CCN(c2ccc(Nc3ncc4c5ccncc5n(C5CCCC5)c4n3)nc2)CC1 [Example 436] | 13
* O=C(Cc1ccc(Nc2ncc3c4ccncc4n(C4CCCC4)c3n2)nc1)N1CCOCC1 [Example 244] | 11
* c1cc2c3cnc(Nc4cnc(N5CCCNCC5)cn4)nc3n(C3CCCC3)c2cn1 [Example 86] | 6.4
* OC1CCN(C2CCN(c3ccc(Nc4ncc5c6ccncc6n(C6CCCC6)c5n4)nn3)CC2)CC1 [Example 455] | 7
* CN(C)[C@@H]1CCN(c2ccc(Nc3ncc4c5ccncc5n(C5CCCC5)c4n3)nc2)C1 [Example 289] | 7.2
* OCCC1CCN(c2ccc(Nc3ncc4c5ccnc(F)c5n(C5CCCC5)c4n3)nc2)CC1 [Example 190] | 6.4
* CC1CN(c2ccc(Nc3ncc4c5cc[nH]c(=O)c5n(C5CCCC5)c4n3)nc2)CC(C)N1 (stereo not drawn) [Example 124] | 17
* CN(CCO)C1CCN(c2ccc(Nc3ncc4c5ccnc(F)c5n(C5CCCC5)c4n3)nc2)CC1 [Example 195] | 13
* CN(C)CCN(C)C1CCN(c2ccc(Nc3ncc4c5ccncc5n(C5CCCC5)c4n3)nn2)CC1 [Example 479] | 8

###

Target: Cdk4/CyclinD1 (Homo sapiens (Human), UniProt P11802)
Experiment: Cdk4 kinase inhibition assay with recombinant Cdk4/CyclinD1, Rb substrate, [33P]-ATP filter plate
Details: 25 μM ATP, read-out: Cdk 4 IC50
pIC50: −log10 of the molar value.
MEASURED ATTRIBUTE: pIC50

* CC1(C)CCC(n2c3nc(Nc4ccc(N5CCC(N6CCCC6)CC5)cn4)ncc3c3ccnc(O)c32)CC1 | 8.18
* CN(C)C1CCN(C(=O)c2ccc(Nc3ncc4c5ccncc5n(C5CCCC5)c4n3)nc2)CC1 | 7.80
* c1cc2c3cnc(Nc4ccc(N5CCC6(CCCN6)CC5)nn4)nc3n(C3CCCC3)c2cn1 | 8.14
* c1cc2c3cnc(Nc4ccc(N5CCNCC5)cn4)nc3n(C3CCCCCC3)c2cn1 | 7.96
* C[C@H](O)Cn1c2cnccc2c2cnc(Nc3ccc(N4CCN[C@@H](C)C4)nn3)nc21 | 7.85
* CC[C@@H](C)n1c2cnccc2c2cnc(Nc3ccc(N4CCNCC4)nn3)nc21 | 8.02
* O[C@H]1CCCN(c2ccc(Nc3ncc4c5ccncc5n(C5CCCC5)c4n3)nn2)C1 | 8.17
* CN(C)[C@H]1CCN(c2ccc(Nc3ncc4c5ccncc5n(C5CCCC5)c4n3)nc2)C1 | 7.85

###

Parameter pIC50: see the listing below.
Biological target: Cdk6/CyclinD3 (Homo sapiens (Human))
Sequence (Q00534 whole entry): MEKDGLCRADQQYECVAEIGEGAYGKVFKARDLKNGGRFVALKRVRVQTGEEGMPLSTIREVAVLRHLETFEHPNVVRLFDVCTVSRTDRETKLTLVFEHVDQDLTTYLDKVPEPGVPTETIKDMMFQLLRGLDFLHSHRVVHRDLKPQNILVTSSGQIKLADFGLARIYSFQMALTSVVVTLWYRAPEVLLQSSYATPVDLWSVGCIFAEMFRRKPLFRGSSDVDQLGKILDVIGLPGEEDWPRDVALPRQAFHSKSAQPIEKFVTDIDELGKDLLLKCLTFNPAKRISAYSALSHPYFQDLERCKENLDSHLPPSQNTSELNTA
Sequence (P30281 whole entry partner): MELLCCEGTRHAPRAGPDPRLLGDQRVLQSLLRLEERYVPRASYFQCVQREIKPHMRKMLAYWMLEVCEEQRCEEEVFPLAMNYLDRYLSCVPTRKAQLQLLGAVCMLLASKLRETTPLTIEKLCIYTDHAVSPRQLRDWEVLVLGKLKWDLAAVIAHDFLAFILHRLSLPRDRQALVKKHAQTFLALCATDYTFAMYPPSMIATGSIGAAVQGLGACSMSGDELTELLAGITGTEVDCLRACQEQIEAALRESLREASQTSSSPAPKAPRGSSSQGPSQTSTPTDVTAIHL
Test: Cdk6 kinase inhibition assay with recombinant Cdk6/CyclinD3, Rb substrate, [33P]-ATP filter plate
Settings: 25 μM ATP, read-out: Cdk 6 IC50
pIC50: −log10 of the molar value.
MEASURED ATTRIBUTE: pIC50

• CN1CCN(c2ccc(Nc3ncc4c5ccccc5n(C5CCCC5)c4n3)nc2)CC1 = 8.10
• CC1(C)CN(c2ccc(Nc3ncc4c5ccncc5n(C5CCC5)c4n3)nn2)CCN1 = 7.92
• CCOC(=O)CN1CCN(c2ccc(Nc3ncc4c5ccncc5n(C5CCCC5)c4n3)nn2)CC1 = 8.01
• C[C@@H]1CN(c2ccc(Nc3ncc4c5ccncc5n(C5CCCC5)c4n3)nn2)CCN1 = 7.94
• NC1CCN(c2ccc(Nc3ncc4c5ccncc5n(C5CCCC5)c4n3)nn2)CC1 = 8.00
